tgt: N NTD (SARS-CoV-2, UniProt P0DTC9 44-176)
method.summary: fluorescence polarization
property.name: Kd (µM)
Dear colleague, please return just the value in µM, with no unit written.

query: State its Kd for this binder: GGAAGAUUAAUAAUUUUCC (structured_RNA) [19-nt slRNA]
result: 124
